test system: HEK293FT dCK*-IKZF1; assay: relative growth recovery (pomalidomide 10 uM = 100%, DMSO = 0%); higher = more growth rescue (IKZF1 fusion degradation); conditions: compound concentration: 5 uM; AraC concentration: 0.3 uM; overnight pretreatment + 4 days AraC
OUTCOME MEASURE: relative growth recovery (%)
One number for each entry, in %.

{"COMPOUND": "C(=C\\c1ccccc1)/CN1CCN(CCOC(c2ccccc2)c2ccccc2)CC1", "SYSTEM TESTED": "HEK293FT dCK*-IKZF1", "TEST RESULT": 0.86}
{"COMPOUND": "C[C@@H]1C[C@@H]([C@H](O)CC2CC(=O)NC(=O)C2)C(=O)[C@@H](C)C1", "SYSTEM TESTED": "HEK293FT dCK*-IKZF1", "TEST RESULT": -12}
{"COMPOUND": "O=c1[nH]c2ccccc2n1C1CCN(CCCC(c2ccc(F)cc2)c2ccc(F)cc2)CC1", "SYSTEM TESTED": "HEK293FT dCK*-IKZF1", "TEST RESULT": 5.47}

Parameters: items (list). Returns: relative growth recovery for each item.
1. CC(C)C[C@H](NC(=O)[C@@H](O)[C@H](N)Cc1ccccc1)C(=O)NCCOCCOCCOCC(=O)O[C@H]1CC[C@H]2[C@@H]3CC[C@H]4CC(=O)CC[C@]4(C)[C@H]3CC[C@]12C.O=C(O)C(F)(F)F [PROTAC AR Degrader-4 (TFA)]
2. CC[C@@H](C(=O)O)C1CC[C@H](C)C([C@@H](C)[C@H](O)[C@H](C)C(=O)[C@H](CC)C2O[C@]3(C=C[C@@H](O)[C@]4(CC[C@@](C)(C5CC[C@](O)(CC)[C@H](C)O5)O4)O3)[C@H](C)C[C@@H]2C)O1 (some centres not stated)
3. CCCCCCCCCCC(=O)O[C@H]1CC[C@H]2[C@@H]3CCC4=CC(=O)CC[C@]4(C)[C@H]3CC[C@]12C [Testosterone (undecanoate)]
4. O=[N+]([O-])/C=C/c1ccc2c(c1)OCO2

[8.26, -1.1, -0.23, -13.1]

----------
Please respond with reported relative growth in counter assay for every item in the list.
test system: HEK293FT dCK*-only; experiment: relative growth in counter assay (no AraC = 100%, AraC + DMSO = 0%); higher = more growth rescue independent of IKZF1; settings: compound concentration: 5 uM; AraC concentration: 0.3 uM; overnight pretreatment + 4 days AraC
Give bare numbers, in %.

{"MOLECULE": "COC(=O)[C@@]12OC[C@]34[C@H]([C@@H](O)[C@@H]1O)[C@@]1(C)CC(=O)C(O)=C(C)[C@@H]1C[C@H]3OC(=O)[C@H](OC(=O)/C=C(\\C)C(C)C)[C@@H]24 [Bruceantin]", "relative growth in counter assay (%)": -34.9}
{"MOLECULE": "O=c1n(Cl)c(=O)n(Cl)c(=O)n1Cl", "relative growth in counter assay (%)": -2.72}
{"MOLECULE": "Clc1ccc(N2CCN(Cc3c[nH]c4ncccc34)CC2)cc1", "relative growth in counter assay (%)": 6.88}
{"MOLECULE": "O=C1c2ccccc2C(=O)c2ccccc21", "relative growth in counter assay (%)": 0.57}
{"MOLECULE": "O=c1c2ccccc2[se]n1-c1ccccc1", "relative growth in counter assay (%)": -8.59}

Each of the following entries comes with a recorded value; kindly state relative growth in counter assay for each.
1. CC(C)C[C@H](NC(=O)[C@@H](O)[C@H](N)Cc1ccccc1)C(=O)NCCOCCOCCOCC(=O)O[C@H]1CC[C@H]2[C@@H]3CC[C@H]4CC(=O)CC[C@]4(C)[C@H]3CC[C@]12C.O=C(O)C(F)(F)F [PROTAC AR Degrader-4 (TFA)]
2. COc1cc2cc(c1Cl)N(C)C(=O)C[C@H](OC(=O)C(C)C)[C@]1(C)O[C@H]1[C@H](C)[C@@H]1C[C@@](O)(NC(=O)O1)[C@H](OC)/C=C/C=C(\C)C2

[12.3, -34.3]
